Item-by-item account of IC50
Target: KRAS WT (Homo sapiens (Human), UniProt P01116+P62937)
Sequence (P01116-2 other isoform, or with tags, fused parts or gaps, one chain of several): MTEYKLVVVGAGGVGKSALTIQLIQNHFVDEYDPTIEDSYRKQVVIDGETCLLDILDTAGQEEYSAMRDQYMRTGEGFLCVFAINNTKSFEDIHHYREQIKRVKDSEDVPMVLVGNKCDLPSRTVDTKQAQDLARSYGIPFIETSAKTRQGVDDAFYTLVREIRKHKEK
Assay: Ras-Raf (BRAF RBD) disruption / FRET / MOA assay, KRAS WT
Type: biochemical
Conditions: read-out: IC50* KRAS WT FRET data
property-label: IC50

1) C=CC(=O)N1CC2(C1)OCCN2C(=O)N(C)[C@H](C(=O)N[C@H]1Cc2nc(cs2)-c2ccc3c(c2)c(c(-c2cccnc2[C@H](C)OC)n3CC)CC(C)(C)COC(=O)[C@@H]2CCCN(N2)C1=O)C(C)C (atropisomer, axis not shown) [Example A620]	0.1 to 1 µM
2) CCn1c(-c2cccnc2[C@H](C)OC)c2c3cc(ccc31)C1=CCCN(C1)C[C@H](NC(=O)[C@H](C(C)C)N(C)C(=O)C1(F)CCN(C(=O)C#CC(C)(C)N(C)C)CC1)C(=O)N1CCC[C@H](N1)C(=O)OCC(C)(C)C2 (atropisomer, axis not shown) [Example A591]	0.1 to 1 µM
3) C=CC(=O)N1C[C@@H]2CN(C(=O)N(C)[C@H](C(=O)N[C@H]3Cc4nc(cs4)-c4ccc5c(c4)c(c(-c4cccnc4[C@H](C)OC)n5CC)CC(C)(C)COC(=O)[C@@H]4CCCN(N4)C3=O)C(C)C)[C@@H]2C1 (atropisomer, axis not shown) [Example A561]	1 to 10 µM
4) CC#CC(=O)N1CC[C@]2(CCN([C@H](C(=O)N[C@H]3Cc4nc(cs4)-c4ccc5c(c4)c(c(-c4cccnc4[C@H](C)OC)n5CC)CC(C)(C)COC(=O)[C@@H]4CCCN(N4)C3=O)C(C)C)C2=O)C1 (atropisomer, axis not shown) [Example A511]	1 to 10 µM

----------
Biological target: K-Ras G12C (Homo sapiens (Human), UniProt P01116+P62937, G12C)
Sequence (P01116-2 other isoform, or with tags, fused parts or gaps G12C, one chain of several): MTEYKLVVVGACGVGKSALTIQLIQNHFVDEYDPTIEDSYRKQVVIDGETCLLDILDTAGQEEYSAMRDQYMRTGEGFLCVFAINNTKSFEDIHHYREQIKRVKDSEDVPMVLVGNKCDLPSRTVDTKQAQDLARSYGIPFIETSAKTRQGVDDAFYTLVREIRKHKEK
Assay: Ras-Raf (BRAF RBD) disruption / FRET / MOA assay, KRAS G12C
Assay type: biochemical
Conditions: KRAS G12C; Ras-Raf disruption/FRET/MOA assay; read-out: IC50* KRAS G12C FRET data
Item-by-item account of IC50
property-label: IC50

1. C=CC(=O)N1CC[C@H](C(=O)N(C)[C@H](C(=O)N[C@H]2CN(C)C(=O)Cc3ccc4c(c3)c(c(-c3cccnc3COC)n4CC)CC(C)(C)COC(=O)[C@@H]3CCCN(N3)C2=O)C(C)C)C1	> 10000 nM
2. C=CC(=O)N1CCO[C@H]2CN(C(=O)N(C)[C@H](C(=O)N[C@H]3Cc4nc(n(C)n4)-c4ccc5c(c4)c(c(-c4cccnc4[C@H](C)OC)n5CC(F)(F)F)CC(C)(C)COC(=O)[C@@H]4CCCN(N4)C3=O)C(C)C)C[C@H]21 (atropisomer, axis not shown)	10 to 100 nM
3. CO[C@@H](C)c1ncccc1-c1c2c3cc(ccc3n1CC(F)(F)F)-c1csc(n1)C[C@H](NC(=O)CCOC1CN(C(=O)C#CC(C)(C)N(C)C)C1)C(=O)N1CCC[C@H](N1)C(=O)OCC(C)(C)C2 (atropisomer, axis not shown)	< 10 nM
4. CCn1c(-c2cccnc2[C@H](C)OC)c2c3cc(ccc31)-c1cccc(c1)C[C@H](NC(=O)[C@H](C1CCCC1)N(C)C(=O)[C@@H]1CN(C(=O)C#CC(C)(C)N(C)C)C[C@@H]1C)C(=O)N1CCC[C@H](N1)C(=O)OCC(C)(C)C2 (atropisomer, axis not shown)	< 10 nM
5. C=CC(=O)Nc1cnc(C(=O)N(C)[C@H](C(=O)N[C@H]2Cc3cccc(c3)-c3ccc4c(c3)c(c(-c3cccnc3[C@H](C)OC)n4CC)CC(C)(C)COC(=O)[C@@H]3CCCN(N3)C2=O)C(C)C)n1C (atropisomer, axis not shown) [Example A524]	100 to 1000 nM
6. C=CC(=O)N1CC[C@H](C(=O)N(C)[C@H](C(=O)N[C@H]2Cc3cc(O)cc(c3)-c3ccc4c(c3)c(c(-c3ccc(CN(C)C)nc3COC)n4CC)CC(C)(C)COC(=O)[C@@H]3CCCN(N3)C2=O)C(C)C)C1	10 to 100 nM
7. C=CC(=O)N1CCO[C@H]2CN(C(=O)N(C)[C@H](C(=O)N[C@H]3Cc4cccc(n4)-c4ccc5c(c4)c(c(-c4cccnc4[C@H](C)OC)n5CC(F)(F)F)CC(C)(C)COC(=O)[C@@H]4CCCN(N4)C3=O)C(C)C)C[C@H]21 (atropisomer, axis not shown)	10 to 100 nM
8. C=CC(=O)N1CC(C(=O)N(C)[C@H](C(=O)N[C@H]2Cc3cccc(c3)-c3ccc4c(c3)c(c(-c3cccnc3[C@H](C)OC)n4CC)CC(C)(C)COC(=O)[C@@H]3CCCN(N3)C2=O)C(C)C)C1 (atropisomer, axis not shown)	1000 to 10000 nM

----------
Target: KRAS G13D (Homo sapiens (Human), UniProt P01116+P62937, G13D)
Sequence (P01116-2 other isoform, or with tags, fused parts or gaps G13D): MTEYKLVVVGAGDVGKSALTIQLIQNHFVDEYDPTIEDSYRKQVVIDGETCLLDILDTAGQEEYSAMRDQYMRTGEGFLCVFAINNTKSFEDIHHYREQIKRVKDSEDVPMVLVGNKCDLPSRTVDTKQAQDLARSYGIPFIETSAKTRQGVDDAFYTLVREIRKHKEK
Sequence (P62937 whole entry): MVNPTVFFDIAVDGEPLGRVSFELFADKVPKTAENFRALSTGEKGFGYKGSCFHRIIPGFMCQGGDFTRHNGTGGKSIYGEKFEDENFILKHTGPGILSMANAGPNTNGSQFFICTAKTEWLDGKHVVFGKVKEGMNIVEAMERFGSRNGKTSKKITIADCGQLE
Experiment: Ras-Raf (BRAF RBD) disruption / FRET / MOA assay, KRAS G13D
Assay type: biochemical
Conditions: read-out: IC50* KRAS G13D FRET data
Item-by-item account of IC50
property-label: IC50

1. CCn1c(-c2cccnc2[C@H](C)OC)c2c3cc(ccc31)-c1csc(n1)C[C@H](NC(=O)[C@H](C(C)C)N1CCC3(CN(C(=O)C#CC(C)(C)N(C)C)C3)C1=O)C(=O)N1CCC[C@H](N1)C(=O)OCC(C)(C)C2 (atropisomer, axis not shown)	> 10 µM
2. C=CC(=O)N1CCO[C@H]2CN(C(=O)N(C)[C@H](C(=O)N[C@H]3CC4=NN=C(O4)c4ccc5c(c4)c(c(-c4cccnc4[C@H](C)OC)n5CC(F)(F)F)CC(C)(C)COC(=O)[C@@H]4CCCN(N4)C3=O)C(C)C)C[C@H]21 (atropisomer, axis not shown)	> 10 µM
3. CCn1c(-c2cccnc2[C@H](C)OC)c2c3cc(ccc31)N1CCO[C@@H](C[C@H](NC(=O)[C@H](C(C)C)N(C)C(=O)C3(F)CCN(C(=O)/C=C/CN(C)C)CC3)C(=O)N3CCC[C@H](N3)C(=O)OCC(C)(C)C2)C1 (atropisomer, axis not shown)	1 to 10 µM
4. C=CC(=O)NC[C@H]1CCN1C(=O)N(C)[C@H](C(=O)N[C@H]1Cc2nc(cs2)-c2ccc3c(c2)c(c(-c2cccnc2[C@H](C)OC)n3CC)CC(C)(C)COC(=O)[C@@H]2CCCN(N2)C1=O)C(C)C (atropisomer, axis not shown)	1 to 10 µM
5. C=CC(=O)N1CCO[C@H]2CCN(C(=O)N(C)[C@H](C(=O)N[C@H]3Cc4nc(cs4)-c4ccc5c(c4)c(c(-c4cccnc4[C@H](C)OC)n5CC)CC(C)(C)COC(=O)[C@@H]4CCCN(N4)C3=O)C(C)C)C[C@@H]21 (atropisomer, axis not shown)	0.1 to 1 µM
6. CCn1c(-c2cccnc2[C@H](C)OC)c2c3cc(ccc31)-c1cccc(c1)C[C@H](NC(=O)[C@H](C(C)C)N1CC[C@]3(CCN(C(=O)C#C[C@@]4(N(C)C)CCOC4)C3)C1=O)C(=O)N1CCC[C@H](N1)C(=O)OCC(C)(C)C2 (atropisomer, axis not shown)	1 to 10 µM
7. CCn1c(-c2cccnc2[C@H](C)OC)c2c3cc(ccc31)-c1nc(co1)C[C@H](NC(=O)[C@@H](COC1CN(C(=O)C#CC(C)(C)N(C)C)C1)C(C)C)C(=O)N1CCC[C@H](N1)C(=O)OCC(C)(C)C2 (atropisomer, axis not shown)	> 10 µM

----------
Item-by-item account of IC50
Target: NRAS G12C (Homo sapiens (Human), UniProt P01111+P62937, G12C)
Sequence (P01111 whole entry G12C, one chain of several): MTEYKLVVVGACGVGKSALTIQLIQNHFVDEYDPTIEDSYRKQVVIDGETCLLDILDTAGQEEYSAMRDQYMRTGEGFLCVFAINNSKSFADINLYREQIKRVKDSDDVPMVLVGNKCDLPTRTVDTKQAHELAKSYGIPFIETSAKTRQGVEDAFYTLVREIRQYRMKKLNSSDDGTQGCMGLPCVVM
Assay: Ras-Raf (BRAF RBD) disruption / FRET / MOA assay, NRAS G12C
Type: biochemical
Conditions: read-out: IC50* NRAS G12C FRET data
property-label: IC50

1) C=CC(=O)N1CCN(C(=O)N(C)[C@H](C(=O)N[C@H]2Cc3cc(O)cc(c3)-c3ccc4c(c3)c(c(-c3cccnc3[C@H](C)OC)n4CC)CC(C)(C)COC(=O)[C@@H]3CCCN(N3)C2=O)C(C)C)CC1 (atropisomer, axis not shown) [Example A262]	10 to 100 nM
2) CO[C@@H](C)c1ncccc1-c1c2c3cc(ccc3n1CC(F)(F)F)-c1cccc(c1)C[C@H](NC(=O)[C@H](C(C)C)N(C)C(=O)[C@H]1CCN(C(=O)C#CC(C)(C)N(C)C)C1)C(=O)N1CCC[C@H](N1)C(=O)OCC(C)(C)C2 (atropisomer, axis not shown) [Example A727]	< 10 nM
3) C=CC(=O)N1C[C@@H](N(C)C(=O)N(C)[C@H](C(=O)N[C@H]2Cc3nc(cs3)-c3ccc4c(c3)c(c(-c3cccnc3[C@H](C)OC)n4CC)CC(C)(C)COC(=O)[C@@H]3CCCN(N3)C2=O)C(C)C)[C@@H](C)C1 (atropisomer, axis not shown) [Example A583]	100 to 1000 nM
4) C=CC(=O)N1CC[C@H](C(=O)N(C)[C@H](C(=O)N[C@H]2Cc3cccc(c3)-c3ccc4c(c3)c(c(-c3cccnc3[C@H](C)OC)n4CC)CC(C)(C)COC(=O)[C@@H]3CCCN(N3)C2=O)C(C)C(F)(F)F)C1 (some centres unmarked) [Example A641]	100 to 1000 nM
5) CCn1c(-c2cccnc2[C@H](C)OC)c2c3cc(ccc31)N1CCO[C@@H](C[C@H](NC(=O)[C@H](C(C)C)N(C)C(=O)C3(F)CCN(C(=O)C#CC(C)(C)N(C)C)CC3)C(=O)N3CCC[C@H](N3)C(=O)OCC(C)(C)C2)C1 (atropisomer, axis not shown) [Example A647]	< 10 nM
6) C=CC(=O)N1CC[C@H](C(=O)N(C)[C@H](C(=O)N[C@H]2Cc3cc(O)cc(c3)-c3ccc4c(c3)c(c(-c3cnccc3[C@H](C)OC)n4CC)CC(C)(C)COC(=O)[C@@H]3CCCN(N3)C2=O)C(C)C)C1 [Example A112]	100 to 1000 nM
7) CCn1c(-c2cccnc2[C@H](C)OC)c2c3cc(ccc31)-c1cccc(c1)C[C@H](NC(=O)[C@@H](COC1CN(C(=O)C#CC(C)(C)N(C)C3CC3)C1)C(C)C)C(=O)N1CCC[C@H](N1)C(=O)OCC(C)(C)C2 (atropisomer, axis not shown) [Example A613]	1000 to 10000 nM
8) C=CC(=O)N(C)C(=O)N(C)[C@H](C(=O)N[C@H]1Cc2nc(cs2)-c2ccc3c(c2)c(c(-c2cccnc2[C@H](C)OC)n3CC)CC(C)(C)COC(=O)[C@@H]2CCCN(N2)C1=O)C(C)C (atropisomer, axis not shown) [Example A355]	> 10000 nM
